These data points were gathered from patent EP4714976A1.

Molecular target: T1, extracellular domain of FGFR2c protein (Example 1) (UniProt P21802 22-377)
T1 construct: extracellular domain
T1 sequence (P21802 22-377): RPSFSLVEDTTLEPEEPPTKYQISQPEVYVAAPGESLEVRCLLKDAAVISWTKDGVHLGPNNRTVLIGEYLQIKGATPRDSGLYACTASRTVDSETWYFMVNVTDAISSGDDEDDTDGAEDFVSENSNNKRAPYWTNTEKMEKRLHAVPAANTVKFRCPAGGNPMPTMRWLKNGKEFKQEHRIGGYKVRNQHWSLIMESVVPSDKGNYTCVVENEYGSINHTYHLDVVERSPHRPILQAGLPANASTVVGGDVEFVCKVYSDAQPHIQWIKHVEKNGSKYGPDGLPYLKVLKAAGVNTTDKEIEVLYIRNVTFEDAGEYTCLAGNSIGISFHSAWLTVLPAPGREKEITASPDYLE
Test: phage ELISA
parameter: binding result

3F11 scFv displayed on phage (scFv) scFv: QVQLQQSGAELVKPGASVKMSCKASGYTFAPYNIHWVRQTPGQGLEWIGLIYPDNGDTSYNQKFKAKATLTADKSSSTAYMQLSSLTSEDSAVYYCARGGFDYWGQGTSLTVSSGGGGSGGGGSGGGGSDIVMTQSQKFMSTSVGDRVSVTCKASQNVGTNVAWYQQKPGQSPKALIYSASYRYSGVPDRFTGSGSGTDFTLTISNVQSEDLAEYFCQQHYSTPFTFGSGTKLEIK ... no binding
3E1 scFv displayed on phage (scFv) scFv: QVQLQQPGAEVVKPGASVKMSCKASGYTFTDYYIHWVKQTPGQGLEWIGAIYPDNGDTSYNQKFKVKATLTADKSSSTAYMQLSSLTSEDSAVYYCARAFTYWGQGTLVTVSAGGGGSGGGGSGGGGSDILITQSPASLSASVGETVTITCGASENIYGALNWYQRKQGKSPQLLIYGATNLADGMSSRFSGSGSGRQYSLKISSLHPDDVATYYCQNVLSTPYTFGGGTKLEIK ... no binding
3F5 scFv displayed on phage (scFv) scFv: EIQLQQSGAELVKPGASVKMSCKASGYTFRYYNMHWVKRTPGQGLEWIGLIYPDNGDTSYNQKFKGKATLTADTSSSTAYMQLSSLTSEDSAVYYCARGGLDYWGQGTTLTVSSGGGGSGGGGSGGGGSDIVLTQSPASLSASVGETVTITCGASENIYGALNWYQRKQGKSPQLLIYGATNLADGMSSRFSGSGSGRQYSLKISSLHPDDVATYYCQNVLSTPYTFGGGTKLEIK ... no binding
